Assay: yeast display, Sf9 membrane polyspecificity reagent, FACS + sequencing; frameworks hold sequencing errors

{"SEQUENCE DATA": "QVQLVESGGGLVQAGGSLRISCAASGSTFWGYDKGWYRQAPGKERELVAAITRNGGGTYYADSVKGRFTISRDNAKNTVYLQMNSLKPEDTAVYYCASTRGAYYLYGGHKMDYWGQGSQVTVSS", "polyreactivity (PSR sort gate)": "high polyreactivity"}
{"SEQUENCE DATA": "QVQLVESGGGLVQAGGSLRLSFPASGSTYFTYAMGWYRQAPGKERELVAAISWSGGTTYYADSVKGRFTISRDNAKNTVYLQMNSLKPEDTAVYYCASDRAGILKANDYWGKGTQVTVSS", "polyreactivity (PSR sort gate)": "low polyreactivity"}
{"SEQUENCE DATA": "QVQLVESGGGLVQAGGSLLLSCAASGFTFRYYAMGWNRQAPGKERELVAAINSGGSTNYADSVKGLFTISRDNAKNTVYLQMNSLKPEDTAVYYCAKRGRRGIEYLGSAEMDYWGEGTQVTVSS", "polyreactivity (PSR sort gate)": "low polyreactivity"}
{"SEQUENCE DATA": "QVQLVESWGGLVQAGGSLRLSCDASGSTFIPKDMGWYRQAPGKERELVAAITVSGDDTYYADSVKGRFTISRDNAKNTVYIQMNILKPEVTAVYYCAAEWGLYVGQYEYCGQGTQVTVSS", "polyreactivity (PSR sort gate)": "low polyreactivity"}
{"SEQUENCE DATA": "QVQLVESGGGLVQAGGSLRLSCAASGRIFKINAMGWSRQAPGKERDLVATISYSAGRTYYADSEKGRFTISRDSAKNTVYLQMNSLKPEDTAVYYCAARISSYWPYSLLDYWGQGTQVTVSS", "polyreactivity (PSR sort gate)": "high polyreactivity"}
